readout-type: melting point

Consider the worked cases shown below.
compound	melting point
COc1ccc2nc(Cl)c(C3CC(c4ccc(Cl)cc4)=NN3c3ccccc3)cc2c1 (stereo not drawn)	145 to 146 °C
COc1ccc2nc(Cl)c(C3CC(c4cc(OC)c(OC)c(OC)c4)=NN3)cc2c1 (stereo not drawn)	114 to 115 °C

Short answer for COc1ccc2nc(Cl)c(-c3cc(-c4ccc(N)cc4)nc(=O)[nH]3)cc2c1 : melting point was 171 to 172 °C
